B1: CPEB3 Ribozyme (parent)
chain: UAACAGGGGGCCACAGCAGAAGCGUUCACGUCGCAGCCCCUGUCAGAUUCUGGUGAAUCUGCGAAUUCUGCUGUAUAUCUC

Variants of: B1
Assay: self-cleavage, relative activity (ratio to wild type); higher = more cleavage; in vitro, sequencing

mutation-notation	self-cleavage
A2G G52C	0.83
U1C A20G	0.59
A56G C79A	1.18
U31C C59U	0.54
U41A U58A	0.22
U43A G46A	0.44
C32A U60A	0.17
A57C G61C	0.16
A15U C62U	0.18
U54C U72G	0.87
A2G A47G	0.48
